- assayed-system: endogenous CD38 in HL60 cells (Homo sapiens, UniProt P28907)
- Construct: endogenous in cells
- Sequence (P28907 whole entry): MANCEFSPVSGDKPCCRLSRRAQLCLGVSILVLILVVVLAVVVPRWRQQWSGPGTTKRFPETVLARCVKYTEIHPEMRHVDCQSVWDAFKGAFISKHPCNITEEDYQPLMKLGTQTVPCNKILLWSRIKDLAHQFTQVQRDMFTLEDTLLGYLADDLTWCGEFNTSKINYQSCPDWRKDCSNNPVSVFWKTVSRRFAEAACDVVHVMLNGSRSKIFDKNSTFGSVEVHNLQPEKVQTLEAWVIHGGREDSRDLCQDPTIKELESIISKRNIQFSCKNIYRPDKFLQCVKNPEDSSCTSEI
- measurement-notes: cellular CD38 assay in HL60 cells (cellular NAD levels)
- condition-context: all-trans retinoic acid, 24 hours, read-out: hCD38 HL60 ATRA NAD Cell Diaphorase IC50
pIC50: −log10 of the molar value.
endpoint: pIC50

[[record]]
molecule = "COc1cc(-n2ccnc2)nc(C(=O)Nc2ccc(C(F)F)nc2)n1 [Compound 210]"
endpoint = "pIC50"
experimental_result = 6.52

[[record]]
molecule = "Cn1cncc1-c1ccnc(C(=O)Nc2ccc(C(C)(C)O)nc2)n1 [Compound 250]"
endpoint = "pIC50"
experimental_result = 6.03

[[record]]
molecule = "Cc1cc(C(=O)N[C@H]2CC[C@H](C(F)F)CC2)nc(-c2cncn2C)n1 [Compound 122]"
endpoint = "pIC50"
experimental_result = 5.99

